Papp values for the compounds below.
- test_name: in vitro
- test_parameters: human, Caco-2, Caco-2 (cm/sec)
*1 amine or outer side, *2 acyl side, *3 side chain or, on linkers, in order; H or OH if unused. Where a SMILES comes first, the peptide text is derived from it. Bridges are numbered along the chain shown (N, C = ends). [ ]: non-standard residue; d: D form. The star is where a group is joined. X11 = CNC(=O)c1ccc(CCN(CC(=O)[*:2])[*:1])cc1OC; NMeF = CN[C@@H](Cc1ccccc1)C(=O)O; NMeL = CN[C@@H](CC(C)C)C(=O)O; NMeAbu = CC[C@H](NC)C(=O)O; Piperidide = C1CCN(*)CC1; NBuGly = CCCCNCC(=O)O; Sar = CNCC(=O)O; tBu = CC(C)(C)*
quantity_measured: Papp (×10⁻⁶ cm/s)

- compound: "CC(C)C[C@@H]1NC(=O)[C@H](Cc2ccccc2)N(C)C(=O)[C@@H](C(C)C)NC(=O)C[C@@H](C(=O)N2CCCCC2)NC(=O)[C@H](Cc2ccccc2)N(C)C(=O)[C@H](Cc2ccccc2)N(C)C(=O)[C@H](C(C)C)NC(=O)[C@H](CC(C)C)N(C)C(=O)CN(C)C(=O)[C@H]([C@@H](C)O)NC(=O)[C@H](CC(C)C)N(C)C1=O [pd221] ([dV][NMeF]L[NMeL]T[Sar][NMeL]V[NMeF][NMeF]D-Piperidide; lactam N-11)"
  quantity_measured: "Papp"
  result_value: 1.1
- compound: "CCCCN1CC(=O)N(C)[C@@H](Cc2ccccc2)C(=O)N(C)[C@@H](CC(C)C)C(=O)N[C@@H](Cc2ccc(O)cc2)C(=O)N(C)[C@@H](CC(C)C)C(=O)N[C@H](C(=O)N2CCCCC2)CC(=O)N(C)CC(=O)N(C)[C@@H](CC(C)C)C(=O)N[C@@H]([C@@H](C)CC)C(=O)N(C)[C@@H](CC(C)C)C(=O)N[C@@H]([C@@H](C)O)C1=O [Compound F08] ([Sar][NMeL]I[NMeL]T[NBuGly][NMeF][NMeL]Y[NMeL]D-Piperidide; lactam N-11)"
  quantity_measured: "Papp"
  result_value: 0.05
- compound: "CC[C@H](C)[C@@H]1NC(=O)[C@H](CC(C)C)N(C)C(=O)CN(C)C(=O)C[C@@H](C(=O)N2CCCCC2)NC(=O)[C@H](CC(C)C)N(C)C(=O)[C@H](COC(C)(C)C)NC(=O)[C@H](CC(C)C)N(C)C(=O)[C@H](Cc2ccccc2)N(C)C(=O)CN(CCc2ccc(C(=O)NC)c(OC)c2)C(=O)[C@H]([C@@H](C)O)NC(=O)[C@H](CC)N(C)C1=O [AP218] ([Sar][NMeL]I[NMeAbu]T[X11][NMeF][NMeL]S(tBu)[NMeL]D-Piperidide; lactam N-11)"
  quantity_measured: "Papp"
  result_value: 0.55
